Tested on: N140
Test: qHTS profiling for inhibitors of Plasmodium falciparum proliferation (AID 504749); note: nearly all actives have a fitted effect of over 60% in size
Details: P. falciparum in erythrocytes, SYBR Green DNA, 72 h; series mostly up to 28.7 µM
Method: NIH National Institute of Allergy and Infectious Diseases [NIAID] NIH Chemical Genomics Center [NCGC] […] Because mature erythrocytes lack DNA, only Plasmodium-derived DNA is detected. NCGC Assay Protocol Summary: The SYBR Green viability assay was adapted from a method described previously (Plouffe et al., 2008). […] The following morning, fluorescence intensity at 485(14) nm excitation and 535(25) nm emission wavelengths was measured on an EnVision (Perkin Elmer) plate reader. […]
Inconclusive results are not listed. Activity calls are given as the source filed them. Calls come from the whole dose curve; as a rule, active = well fitted inhibition curve with a large enough effect; inconclusive = small, poorly fitted or top-dose-only effect; inactive = flat fitted curve, though single readings scatter.
Outcome codes: 1.0 = active, 0.0 = inactive

1. Clc1ccc(COC(Cn2ccnc2)c2ccc(Cl)cc2Cl)c(Cl)c1 (stereo not given) : 1.0
2. COc1cc2c(cc1OC)CC(=O)N(CCCN(C)C[C@H]1Cc3cc(OC)c(OC)cc31)CC2 : 0.0
3. O=C1C(CCC(O)c2ccc(F)cc2)C(c2ccc(O)cc2)N1c1ccc(F)cc1 (stereo not given) : 0.0
4. CS(=O)(=O)c1ccc(C2=C(c3ccccc3)C(=O)OC2)cc1 : 0.0
5. COc1ccnc(CS(=O)c2nc3ccc(OC(F)F)cc3[nH]2)c1OC (stereo not given) : 0.0
